Assay: Three-way crossover PK of ARV-110 API and ASD compositions, fed beagle dogs
Conditions: in vivo, 50 mg API per dog oral, fed condition, geometric mean
property label: Cmax (ng/mL)

[[record]]
compound = "N#Cc1ccc(O[C@H]2CC[C@H](NC(=O)c3ccc(N4CCC(CN5CCN(c6cc7c(cc6F)C(=O)N(C6CCC(=O)NC6=O)C7=O)CC5)CC4)nn3)CC2)cc1Cl (stereo partly shown)"
readout_unit = "ng/mL"
measured_value = 80.3


---

Experiment: PK of ARV-110 API, i.v. injection vs oral capsule, fasted beagle dogs (absolute oral bioavailability)
Format: in vivo
Conditions: beagle, in vivo, iv; I.V. injection 5 mg per dog, fasted condition, geometric mean
property label: AUC(0-inf) (ng·h/mL)

[[record]]
compound = "N#Cc1ccc(O[C@H]2CC[C@H](NC(=O)c3ccc(N4CCC(CN5CCN(c6cc7c(cc6F)C(=O)N(C6CCC(=O)NC6=O)C7=O)CC5)CC4)nn3)CC2)cc1Cl (stereo partly shown)"
property_label = "AUC(0-inf)"
measured_value = 866


---

Test: PK of ARV-471 API high dose, fasted vs fed beagle dogs
Format: in vivo
Conditions: beagle, dog, plasma, po, 200 mg, API capsule 200 mg oral, fed condition, geometric mean
property label: Cmax

[[record]]
molecule = "O=C1CC[C@H](N2Cc3cc(N4CCN(CC5CCN(c6ccc([C@@H]7c8ccc(O)cc8CC[C@@H]7c7ccccc7)cc6)CC5)CC4)ccc3C2=O)C(=O)N1 [ARV-471]"
measured_value = "860 ng/mL"


---

Experiment: PK of ARV-471 API high dose, fasted vs fed beagle dogs
Type: in vivo
Details: beagle, dog, plasma, po, 200 mg, API capsule 200 mg oral, fed condition, geometric mean
property label: AUC(0-inf)

[[record]]
compound = "O=C1CC[C@H](N2Cc3cc(N4CCN(CC5CCN(c6ccc([C@@H]7c8ccc(O)cc8CC[C@@H]7c7ccccc7)cc6)CC5)CC4)ccc3C2=O)C(=O)N1 [ARV-471]"
measured_value = "15600 ng·h/mL"


---

Test: PK of ARV-471 API, oral fasted and fed and i.v., beagle dogs
Format: in vivo
Conditions: beagle, dog, plasma; oral 60 mg vs i.v. 6 mg, fasted dogs; read-out: absolute bioavailability
Experimental: To investigate the oral absorption of ARV-110, two-way crossover or three-way crossover designs were performed. Six Beagle dogs were classified into two or three groups. […] Blood samples were taken from each group of animals at the different time points after the drug administration. Plasma concentrations were analyzed by an LC-MS/MS method. […]
property label: bioavailability

[[record]]
compound_structure = "O=C1CC[C@H](N2Cc3cc(N4CCN(CC5CCN(c6ccc([C@@H]7c8ccc(O)cc8CC[C@@H]7c7ccccc7)cc6)CC5)CC4)ccc3C2=O)C(=O)N1"
property_label = "bioavailability"
measured_value = "~7%"


---

Assay: Three-way crossover PK of ARV-471 API and ASD compositions, fed beagle dogs
Type: in vivo
Settings: dog, plasma, 60 mg of API oral, fed condition, geometric mean
property label: Cmax

[[record]]
compound = "O=C1CC[C@H](N2Cc3cc(N4CCN(CC5CCN(c6ccc([C@@H]7c8ccc(O)cc8CC[C@@H]7c7ccccc7)cc6)CC5)CC4)ccc3C2=O)C(=O)N1 [ARV-471]"
measured_value = "381 ng/mL"


---

Assay: PK of ARV-471 API, oral fasted and fed and i.v., beagle dogs
Type: in vivo
Conditions: beagle, dog, plasma, iv, 6 mg, i.v. 6 mg, fasted condition, geometric mean
property label: Cmax (µg/mL)

[[record]]
compound_structure = "O=C1CC[C@H](N2Cc3cc(N4CCN(CC5CCN(c6ccc([C@@H]7c8ccc(O)cc8CC[C@@H]7c7ccccc7)cc6)CC5)CC4)ccc3C2=O)C(=O)N1"
property_label = "Cmax"
measured_value = 0.609


---

Assay: PK of ARV-471 API, oral fasted and fed and i.v., beagle dogs
Type: in vivo
Conditions: beagle, dog, plasma, po, 60 mg, API capsule oral 60 mg, fasted condition, geometric mean
property label: AUC(0-inf) (ng·h/mL)

[[record]]
molecule = "O=C1CC[C@H](N2Cc3cc(N4CCN(CC5CCN(c6ccc([C@@H]7c8ccc(O)cc8CC[C@@H]7c7ccccc7)cc6)CC5)CC4)ccc3C2=O)C(=O)N1 [ARV-471]"
property_label = "AUC(0-inf)"
measured_value = 2480


---

Test: PK of ARV-471 API high dose, fasted vs fed beagle dogs
Format: in vivo
Conditions: beagle, dog, plasma, po, 200 mg, API capsule 200 mg oral, fasted condition, geometric mean
property label: AUC(0-inf) (ng·h/mL)

[[record]]
compound_structure = "O=C1CC[C@H](N2Cc3cc(N4CCN(CC5CCN(c6ccc([C@@H]7c8ccc(O)cc8CC[C@@H]7c7ccccc7)cc6)CC5)CC4)ccc3C2=O)C(=O)N1"
readout_unit = "ng·h/mL"
measured_value = 7650


---

Assay: PK of ARV-110 API capsules, fasted vs high-fat fed beagle dogs
Assay type: in vivo
Conditions: beagle, dog, in vivo, po, 45 mg, API capsules 45 mg oral, fed condition (high-fat food), geometric mean
Method: Then, the capsule filled with ARV-110 API was prepared to compare the absorption advantage of our ASD formulation. Each capsule contained 45 mg ARV-110 API. […] Blood samples were taken from each group of animals at the following time points: 0 h (before test drug administration), and 0.5, 1, 1.5, 2, 3, 4, 5, 6, 8, 10, 12, 24, 48, 72 h after the drug administration. ARV-110 plasma concentrations were analyzed by an LC-MS/MS method. […]
property label: Cmax (µg/mL)

[[record]]
compound = "N#Cc1ccc(O[C@H]2CC[C@H](NC(=O)c3ccc(N4CCC(CN5CCN(c6cc7c(cc6F)C(=O)N(C6CCC(=O)NC6=O)C7=O)CC5)CC4)nn3)CC2)cc1Cl (stereo partly shown)"
property_label = "Cmax"
readout_unit = "µg/mL"
measured_value = 0.0565


---

Test: PK of ARV-471 API, oral fasted and fed and i.v., beagle dogs
Assay type: in vivo
Settings: beagle, dog, plasma, po, 60 mg, API capsule oral 60 mg, fed condition, geometric mean
property label: AUC(0-inf) (ng·h/mL)

[[record]]
compound = "O=C1CC[C@H](N2Cc3cc(N4CCN(CC5CCN(c6ccc([C@@H]7c8ccc(O)cc8CC[C@@H]7c7ccccc7)cc6)CC5)CC4)ccc3C2=O)C(=O)N1 [ARV-471]"
measured_value = 5230


---

Assay: PK of ARV-471 API, oral fasted and fed and i.v., beagle dogs
Type: in vivo
Settings: beagle, dog, plasma, iv, 6 mg, i.v. 6 mg, fasted condition, geometric mean
property label: AUC(0-t) (ng·h/mL)

[[record]]
compound_structure = "O=C1CC[C@H](N2Cc3cc(N4CCN(CC5CCN(c6ccc([C@@H]7c8ccc(O)cc8CC[C@@H]7c7ccccc7)cc6)CC5)CC4)ccc3C2=O)C(=O)N1"
property_label = "AUC(0-t)"
measured_value = 3120


---

Experiment: PK of ARV-110 API, i.v. injection vs oral capsule, fasted beagle dogs (absolute oral bioavailability)
Assay type: in vivo
Conditions: beagle, in vivo; API oral capsule 50 mg per dog, fasted condition, geometric mean
property label: AUC(0-inf) (ng·h/mL)

[[record]]
molecule = "N#Cc1ccc(O[C@H]2CC[C@H](NC(=O)c3ccc(N4CCC(CN5CCN(c6cc7c(cc6F)C(=O)N(C6CCC(=O)NC6=O)C7=O)CC5)CC4)nn3)CC2)cc1Cl (stereo partly shown)"
measured_value = 279

